tested-target: T1, AFP158/HLA-A*02:01 complex (human)
T1 construct: flowed as analyte in SPR
assay: SPR, crude scFv captured, pMHC analyte;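 note: pMHC analyte injected at three concentrations, association phase of one hundred seconds, then running buffer for dissociation, rates fitted from both curves, KD derived from the rates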
measurement-label: kon (M⁻¹ s⁻¹)
Express your answer in M⁻¹ s⁻¹, writing the number without its unit.

AS170036 VL1VH1-98I108D (scFv, also called 35-AS170036 VL1VH1-98I108D) scFv: QSALTQPRSVSGSPGQSVTISCAGTSSDVGSENYVSWYQQHPGKAPKLMIYQVNKRASGVPDRFSGSKSGNTASLTISGLQAEDEADYYCASYRSSDINIVFGGGTKLTVLGGGGSGGGGSGGGGSEVQLVESGGGLVQPGGSLRLSCAASGFTFSSYAMSWVRQAPGKGLEWVSTINSGTGSPYYADSVKGRFTISRDNSKNTLYLQMNSLRAEDTAVYYCAKNFFDGSWFLDPPAMDYWGQGTLVTVSSHHHHHH | 370000

Ask | Find the recorded kon belonging to AS170036 VL1VH1-98F108D (scFv, also called 32-AS170036 VL1VH1-98F108D) scFv: QSALTQPRSVSGSPGQSVTISCAGTSSDVGSENYVSWYQQHPGKAPKLMIYQVNKRASGVPDRFSGSKSGNTASLTISGLQAEDEADYYCASYRSSDFNIVFGGGTKLTVLGGGGSGGGGSGGGGSEVQLVESGGGLVQPGGSLRLSCAASGFTFSSYAMSWVRQAPGKGLEWVSTINSGTGSPYYADSVKGRFTISRDNSKNTLYLQMNSLRAEDTAVYYCAKNFFDGSWFLDPPAMDYWGQGTLVTVSSHHHHHH and report it.
Reply | 450000

Ask | So what's the measured kon for this one? AS170036 VL1VH1-56Y108S (scFv, also called 18-AS170036 VL1VH1-56Y108S) scFv: QSALTQPRSVSGSPGQSVTISCAGTSSDVGSENYVSWYQQHPGKAPKLMIYQVNKRASGVPDRFSGSKSGNTASLTISGLQAEDEADYYCASYRSSDHNIVFGGGTKLTVLGGGGSGGGGSGGGGSEVQLVESGGGLVQPGGSLRLSCAASGFTFSSYAMSWVRQAPGKGLEWVSTINSGTYSPYYADSVKGRFTISRDNSKNTLYLQMNSLRAEDTAVYYCAKNFFDGSWFLSPPAMDYWGQGTLVTVSSHHHHHH
Reply | 140000

Ask | Record request: kon value, item AS170036 VL1VH1-57H108D (scFv, also called 23-AS170036 VL1VH1-57H108D) scFv: QSALTQPRSVSGSPGQSVTISCAGTSSDVGSENYVSWYQQHPGKAPKLMIYQVNKRASGVPDRFSGSKSGNTASLTISGLQAEDEADYYCASYRSSDHNIVFGGGTKLTVLGGGGSGGGGSGGGGSEVQLVESGGGLVQPGGSLRLSCAASGFTFSSYAMSWVRQAPGKGLEWVSTINSGTGHPYYADSVKGRFTISRDNSKNTLYLQMNSLRAEDTAVYYCAKNFFDGSWFLDPPAMDYWGQGTLVTVSSHHHHHH
Reply | 210000

Ask | Entry AS170036 VL1VH1-57H98F (scFv, also called 07-AS170036 VL1VH1-57H98F) scFv: QSALTQPRSVSGSPGQSVTISCAGTSSDVGSENYVSWYQQHPGKAPKLMIYQVNKRASGVPDRFSGSKSGNTASLTISGLQAEDEADYYCASYRSSDFNIVFGGGTKLTVLGGGGSGGGGSGGGGSEVQLVESGGGLVQPGGSLRLSCAASGFTFSSYAMSWVRQAPGKGLEWVSTINSGTGHPYYADSVKGRFTISRDNSKNTLYLQMNSLRAEDTAVYYCAKNFFDGSWFLGPPAMDYWGQGTLVTVSSHHHHHH : reported kon = ?
Reply | 240000

Ask | Using the record for AS170036 VL1VH1-98F108A (scFv, also called 31-AS170036 VL1VH1-98F108A) scFv: QSALTQPRSVSGSPGQSVTISCAGTSSDVGSENYVSWYQQHPGKAPKLMIYQVNKRASGVPDRFSGSKSGNTASLTISGLQAEDEADYYCASYRSSDFNIVFGGGTKLTVLGGGGSGGGGSGGGGSEVQLVESGGGLVQPGGSLRLSCAASGFTFSSYAMSWVRQAPGKGLEWVSTINSGTGSPYYADSVKGRFTISRDNSKNTLYLQMNSLRAEDTAVYYCAKNFFDGSWFLAPPAMDYWGQGTLVTVSSHHHHHH , report its kon.
Reply | 330000
